# test.system: Relaxin receptor 1 (Homo sapiens)
# method.description: Agonist activity at human RXFP1 stably expressed in HEK293 cells assessed as intracellular cAMP accumulation incubated for 30 mins by HTRF assay
Label Satisfied when EC50 is strictly below 0.02 µM; at or above that, label Not satisfied.

>  <compound>
COc1ccc(-c2cc(CC(=O)O)ccc2F)cc1C(=O)N[C@H]1[C@@H](C(=O)Nc2ccc(F)c(C(F)(F)F)c2)[C@H]2CC[C@@H]1/C2=C\c1cnoc1

>  <test.system>
Relaxin receptor 1 (Homo sapiens)

>  <assigned.label>
Satisfied

$$$$
>  <compound>
COc1ccc(-c2ccc(C(=O)O)cc2)cc1C(=O)N[C@H]1[C@@H](C(=O)Nc2ccc(F)c(C(F)(F)F)c2)[C@H]2CC[C@@H]1C2=C(C)C

>  <test.system>
Relaxin receptor 1 (Homo sapiens)

>  <assigned.label>
Not satisfied

$$$$
>  <compound>
CNC(=O)OC(C(=O)O)c1ccc(F)c(-c2ccc(OC)c(C(=O)N[C@H]3[C@@H](C(=O)Nc4ccc(F)c(C(F)(F)F)c4)[C@H]4CC[C@@H]3/C4=C\c3cnoc3)c2)c1 (stereo partly specified)

>  <test.system>
Relaxin receptor 1 (Homo sapiens)

>  <assigned.label>
Satisfied

$$$$
>  <compound>
COc1ccc(-c2cc(C(O)C(=O)O)ccc2F)cc1C(=O)N[C@H]1[C@@H](C(=O)Nc2ccc(F)c(C(F)(F)F)c2)[C@H]2CC[C@@H]1/C2=C\c1cnoc1 (stereo partly specified)

>  <test.system>
Relaxin receptor 1 (Homo sapiens)

>  <assigned.label>
Satisfied

$$$$
>  <compound>
COc1ccc(-c2cc(C(=O)NS(C)(=O)=O)ccc2F)cc1C(=O)N[C@H]1[C@@H](C(=O)Nc2ccc(F)c(C(F)(F)F)c2)[C@H]2CC[C@@H]1/C2=C\c1cnoc1

>  <test.system>
Relaxin receptor 1 (Homo sapiens)

>  <assigned.label>
Not satisfied

$$$$
>  <compound>
COc1cc(F)c(F)cc1C(=O)N[C@H]1[C@@H](C(=O)Nc2ccc(F)c(C(F)(F)F)c2)[C@@H]2CC[C@@H]1C2C(C)C (stereo in doubt)

>  <test.system>
Relaxin receptor 1 (Homo sapiens)

>  <assigned.label>
Not satisfied

$$$$

* * *

# method.description: Clearance in Sprague-Dawley rat at 1 mg/kg, iv
# Format: ADME, organism-based
# assay.context: in vivo
assay.endpoint: clearance (mL/min/kg)

>  <compound>
CNC(=O)OC(C(=O)O)c1ccc(F)c(-c2ccc(OC)c(C(=O)N[C@H]3[C@@H](C(=O)Nc4ccc(F)c(C(F)(F)F)c4)[C@H]4CC[C@@H]3/C4=C\C3CC3)c2)c1 (stereo in doubt; 39)

>  <assay.endpoint>
clearance

>  <recorded.result>
2.5

$$$$

* * *

# method.description: Total AUC in Sprague-Dawley rat at 1 mg/kg, iv
# Format: ADME, organism-based
# assay.context: in vivo

>  <compound>
CNC(=O)OC(C(=O)O)c1ccc(F)c(-c2ccc(OC)c(C(=O)N[C@H]3[C@@H](C(=O)Nc4ccc(F)c(C(F)(F)F)c4)[C@H]4CC[C@@H]3/C4=C\C3CC3)c2)c1 (stereo in doubt; 39)

>  <AUC [µM·h]>
9.6

$$$$

* * *

Recorded pEC50, one value per entry.
# test.system: Relaxin receptor 1 (Mus musculus, UniProt Q6R6I7)
# method.description: Agonist activity at mouse RXFP1 stably expressed in HEK293 cells assessed as intracellular cAMP accumulation incubated for 30 mins by HTRF assay
# Assay type: functional, cell-based
pEC50: −log10 of the molar value.

>  <molecule>
COc1ccc(-c2cc(CC(=O)O)ccc2F)cc1C(=O)N[C@H]1[C@@H](C(=O)Nc2ccc(F)c(C(F)(F)F)c2)[C@H]2CC[C@@H]1/C2=C\c1cnoc1

>  <pEC50>
6.13

$$$$
>  <molecule>
CNC(=O)OC(C(=O)O)c1ccc(F)c(-c2ccc(OC)c(C(=O)N[C@H]3[C@@H](C(=O)Nc4ccc(F)c(C(F)(F)F)c4)[C@H]4CC[C@@H]3/C4=C\C3CC3)c2)c1 (stereo in doubt; 40)

>  <pEC50>
6.41

$$$$
>  <molecule>
COc1ccc(-c2cc(C(O)C(=O)O)ccc2F)cc1C(=O)N[C@H]1[C@@H](C(=O)Nc2ccc(F)c(C(F)(F)F)c2)[C@H]2CC[C@@H]1/C2=C\c1cnoc1 (stereo partly drawn)

>  <pEC50>
5.96

$$$$

* * *

# test.system: Relaxin receptor 1 (Homo sapiens, UniProt Q9HBX9)
# Sequence (Q9HBX9 whole entry): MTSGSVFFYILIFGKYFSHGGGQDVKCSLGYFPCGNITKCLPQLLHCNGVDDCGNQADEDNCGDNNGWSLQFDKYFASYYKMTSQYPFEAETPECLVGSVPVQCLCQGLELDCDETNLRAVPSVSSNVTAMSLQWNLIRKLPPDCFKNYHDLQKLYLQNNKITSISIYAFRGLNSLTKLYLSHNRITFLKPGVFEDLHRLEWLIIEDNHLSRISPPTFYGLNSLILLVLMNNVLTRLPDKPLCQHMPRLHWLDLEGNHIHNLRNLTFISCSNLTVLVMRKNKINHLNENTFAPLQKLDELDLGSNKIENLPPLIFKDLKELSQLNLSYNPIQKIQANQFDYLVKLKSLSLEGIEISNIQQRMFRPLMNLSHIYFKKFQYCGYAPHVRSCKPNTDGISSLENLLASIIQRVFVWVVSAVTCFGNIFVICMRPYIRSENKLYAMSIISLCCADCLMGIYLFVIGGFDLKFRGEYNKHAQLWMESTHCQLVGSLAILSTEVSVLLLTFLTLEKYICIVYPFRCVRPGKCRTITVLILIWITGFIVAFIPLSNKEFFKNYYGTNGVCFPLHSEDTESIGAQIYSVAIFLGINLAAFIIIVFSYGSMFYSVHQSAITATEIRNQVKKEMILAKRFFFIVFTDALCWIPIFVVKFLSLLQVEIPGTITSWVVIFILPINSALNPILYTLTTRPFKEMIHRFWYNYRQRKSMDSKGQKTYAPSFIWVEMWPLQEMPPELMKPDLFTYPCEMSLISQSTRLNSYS
# method.description: Agonist activity at human RXFP1
pEC50: −log10 of the molar value.

>  <smiles.record>
COc1cc(F)c(F)cc1C(=O)Nc1ccccc1C(=O)Nc1ccc(F)c(C(F)(F)F)c1

>  <pEC50>
5.92

$$$$

* * *

# test.system: Relaxin receptor 1 (Mus musculus)
# Sequence (Q6R6I7 whole entry): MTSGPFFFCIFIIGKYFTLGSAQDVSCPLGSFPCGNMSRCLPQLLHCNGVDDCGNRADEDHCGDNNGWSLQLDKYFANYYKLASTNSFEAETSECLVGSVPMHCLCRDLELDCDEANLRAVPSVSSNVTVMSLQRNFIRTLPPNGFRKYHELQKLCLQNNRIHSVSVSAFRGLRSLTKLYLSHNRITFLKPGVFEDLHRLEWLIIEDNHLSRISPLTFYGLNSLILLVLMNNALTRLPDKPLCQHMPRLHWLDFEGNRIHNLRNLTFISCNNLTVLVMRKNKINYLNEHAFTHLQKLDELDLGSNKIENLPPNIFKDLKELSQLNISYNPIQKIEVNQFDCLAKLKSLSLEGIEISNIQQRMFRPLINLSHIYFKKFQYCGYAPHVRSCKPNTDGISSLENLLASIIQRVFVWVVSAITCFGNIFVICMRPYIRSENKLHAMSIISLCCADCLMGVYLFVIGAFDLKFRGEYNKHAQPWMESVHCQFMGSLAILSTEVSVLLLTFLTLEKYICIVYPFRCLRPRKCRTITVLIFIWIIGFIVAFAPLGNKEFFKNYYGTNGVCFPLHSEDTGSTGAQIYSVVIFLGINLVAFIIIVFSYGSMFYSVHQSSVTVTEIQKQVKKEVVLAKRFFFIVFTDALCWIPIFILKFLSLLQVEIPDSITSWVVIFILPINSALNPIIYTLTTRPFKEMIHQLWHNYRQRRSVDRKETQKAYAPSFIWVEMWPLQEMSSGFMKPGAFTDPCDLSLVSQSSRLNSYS
# method.description: Agonist activity at mouse RXFP1 stably expressed in HEK293 cells assessed as intracellular cAMP accumulation incubated for 30 mins by HTRF assay
# Assay type: functional, cell-based
pEC50: −log10 of the molar value.
Some compounds, each annotated with its measured pEC50.

>  <compound>
COC(=O)c1ccc(F)c(-c2ccc(OC)c(C(=O)N[C@H]3[C@@H](C(=O)Nc4ccc(F)c(C(F)(F)F)c4)[C@H]4CC[C@@H]3C4=C(C)C)c2)c1

>  <relational.operator>
<

>  <pEC50>
5.00

$$$$
>  <compound>
COc1ccc(-c2cccc(C(=O)O)c2)cc1C(=O)N[C@H]1[C@@H](C(=O)Nc2ccc(F)c(C(F)(F)F)c2)[C@H]2CC[C@@H]1C2=C(C)C

>  <relational.operator>
=

>  <pEC50>
5.20

$$$$
>  <compound>
COc1ccc(-c2cc(O)ccc2F)cc1C(=O)N[C@H]1[C@@H](C(=O)Nc2ccc(F)c(C(F)(F)F)c2)[C@H]2CC[C@@H]1/C2=C\c1cnoc1

>  <relational.operator>
=

>  <pEC50>
5.52

$$$$
>  <compound>
COc1ccc(-c2cc(C(=O)NS(C)(=O)=O)ccc2F)cc1C(=O)N[C@H]1[C@@H](C(=O)Nc2ccc(F)c(C(F)(F)F)c2)[C@H]2CC[C@@H]1/C2=C\c1cnoc1

>  <relational.operator>
=

>  <pEC50>
6.25

$$$$
>  <compound>
COc1ccc(-c2ccc(C(=O)O)cc2)cc1C(=O)N[C@H]1[C@@H](C(=O)Nc2ccc(F)c(C(F)(F)F)c2)[C@H]2CC[C@@H]1C2=C(C)C

>  <relational.operator>
=

>  <pEC50>
5.64

$$$$
>  <compound>
COc1ccc(-c2cc(C(=O)O)ccc2F)cc1C(=O)N[C@H]1[C@@H](C(=O)Nc2ccc(F)c(C(F)(F)F)c2)[C@H]2CC[C@@H]1/C2=C\c1ccccc1

>  <relational.operator>
=

>  <pEC50>
5.89

$$$$
>  <compound>
CNC(=O)OC(C(=O)O)c1ccc(F)c(-c2ccc(OC)c(C(=O)N[C@H]3[C@@H](C(=O)Nc4ccc(F)c(C(F)(F)F)c4)[C@H]4CC[C@@H]3/C4=C\c3cnoc3)c2)c1 (stereo not given in full)

>  <relational.operator>
=

>  <pEC50>
6.96

$$$$
>  <compound>
COc1ccc(-c2cc(C(=O)O)ccc2F)cc1C(=O)N[C@H]1[C@@H](C(=O)Nc2ccc(F)c(C(F)(F)F)c2)[C@H]2CC[C@@H]1C2=C(C)C

>  <relational.operator>
=

>  <pEC50>
6.03

$$$$
>  <compound>
COc1ccc(-c2cc(C(=O)O)ccc2F)cc1C(=O)N[C@H]1[C@@H](C(=O)Nc2ccc(F)c(C(F)(F)F)c2)[C@H]2CC[C@@H]1/C2=C\C(F)(F)F

>  <relational.operator>
=

>  <pEC50>
6.30

$$$$
>  <compound>
COc1ccc(-c2ccccc2C(=O)O)cc1C(=O)N[C@H]1[C@@H](C(=O)Nc2ccc(F)c(C(F)(F)F)c2)[C@H]2CC[C@@H]1C2=C(C)C

>  <relational.operator>
<

>  <pEC50>
4.70

$$$$

Origin of values: ChEMBL document CHEMBL6182920
